Cited source: the supplement of paper PMC9233669

Tested on: biotinyl-Met-oxazolone
assay.protocol: self-aminoacylation, catalytic enhancement (BMO) (fold over background); higher = more active; k-Seq, kA / k0A0; sequences stand for … in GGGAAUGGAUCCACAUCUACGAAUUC…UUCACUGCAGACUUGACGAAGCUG
Variants at the floor of the assay were thinned out.
Each record here notes measured self-aminoacylation.
value.kind: self-aminoacylation

residue_codes="ACUCACCUUGGUCAUCGGGUG [Fam2.2 aminoacylation ribozyme variant]" target_entity=biotinyl-Met-oxazolone value_kind=self-aminoacylation assay_result=6.92
residue_codes="CUACUUCGAACAAUCGGGCUG [Fam1A.1 aminoacylation ribozyme variant]" target_entity=biotinyl-Met-oxazolone value_kind=self-aminoacylation assay_result=1.02
residue_codes="AUUACCCAGGUUAUCGAGUGA [Fam2.1 aminoacylation ribozyme variant]" target_entity=biotinyl-Met-oxazolone value_kind=self-aminoacylation assay_result=9.6
residue_codes="UUUACCCUGGUUAUCGAGUGA [Fam2.1 aminoacylation ribozyme variant]" target_entity=biotinyl-Met-oxazolone value_kind=self-aminoacylation assay_result=7.81
residue_codes="CUACCUCAAACAAUCGUUCUG [Fam1A.1 aminoacylation ribozyme variant]" target_entity=biotinyl-Met-oxazolone value_kind=self-aminoacylation assay_result=0.525
residue_codes="AUUAACCUGGUCAUCGAGUGU [Fam2.1 aminoacylation ribozyme variant]" target_entity=biotinyl-Met-oxazolone value_kind=self-aminoacylation assay_result=3.72
residue_codes="AAGUUUGCUGAUAGUCACAAG [Fam3.1 aminoacylation ribozyme variant]" target_entity=biotinyl-Met-oxazolone value_kind=self-aminoacylation assay_result=1.2
residue_codes="CCACACUUCAAACAUUCGGUC [Fam1B.1 aminoacylation ribozyme variant]" target_entity=biotinyl-Met-oxazolone value_kind=self-aminoacylation assay_result=1.47
residue_codes="CUACUUCUAACAAUCGGUCUG [Fam1A.1 aminoacylation ribozyme variant]" target_entity=biotinyl-Met-oxazolone value_kind=self-aminoacylation assay_result=0.608
residue_codes="CUACUUCAAAGAAUAGGUCUG [Fam1A.1 aminoacylation ribozyme variant]" target_entity=biotinyl-Met-oxazolone value_kind=self-aminoacylation assay_result=0.784
residue_codes="CUACUUCAUACAAUCGGUGUG [Fam1A.1 aminoacylation ribozyme variant]" target_entity=biotinyl-Met-oxazolone value_kind=self-aminoacylation assay_result=0.959
residue_codes="AAGUUGGCUAAUAGUCGCAAU [Fam3.1 aminoacylation ribozyme variant]" target_entity=biotinyl-Met-oxazolone value_kind=self-aminoacylation assay_result=1.32
residue_codes="AUUCACCUAGGUCAACAGGUG [Fam2.2 aminoacylation ribozyme variant]" target_entity=biotinyl-Met-oxazolone value_kind=self-aminoacylation assay_result=2.2
residue_codes="CCUCACUUCAAGCAAUCGGUA [Fam1B.1 aminoacylation ribozyme variant]" target_entity=biotinyl-Met-oxazolone value_kind=self-aminoacylation assay_result=1.51
residue_codes="CUACUUUAAACAAUCGGCCUG [Fam1A.1 aminoacylation ribozyme variant]" target_entity=biotinyl-Met-oxazolone value_kind=self-aminoacylation assay_result=1.24
residue_codes="CCACACUUGAAGCAAUAGGUC [Fam1B.1 aminoacylation ribozyme variant]" target_entity=biotinyl-Met-oxazolone value_kind=self-aminoacylation assay_result=0.509
residue_codes="AACUUUGCUAAUAGUCGCAAU [Fam3.1 aminoacylation ribozyme variant]" target_entity=biotinyl-Met-oxazolone value_kind=self-aminoacylation assay_result=2.79
residue_codes="CUAUUUCAAACAAACGGUCUG [Fam1A.1 aminoacylation ribozyme variant]" target_entity=biotinyl-Met-oxazolone value_kind=self-aminoacylation assay_result=0.923
residue_codes="AAGUUUGCUAAUAGUCGCAUG [Fam3.1 aminoacylation ribozyme variant]" target_entity=biotinyl-Met-oxazolone value_kind=self-aminoacylation assay_result=0.93
residue_codes="AUUCGCCUAGGGCAUCGGGUG [Fam2.2 aminoacylation ribozyme variant]" target_entity=biotinyl-Met-oxazolone value_kind=self-aminoacylation assay_result=5.3
residue_codes="AUUCACCUAGGUUAUCGCGUG [Fam2.2 aminoacylation ribozyme variant]" target_entity=biotinyl-Met-oxazolone value_kind=self-aminoacylation assay_result=3.16
residue_codes="AUUCACGUAGGUUAUCGGGUG [Fam2.2 aminoacylation ribozyme variant]" target_entity=biotinyl-Met-oxazolone value_kind=self-aminoacylation assay_result=5.38
residue_codes="AUUACCCAGGUCAUCAAGUGA [Fam2.1 aminoacylation ribozyme variant]" target_entity=biotinyl-Met-oxazolone value_kind=self-aminoacylation assay_result=1.97
residue_codes="AGUAGCCUGGUCAUCGAGUGA [Fam2.1 aminoacylation ribozyme variant]" target_entity=biotinyl-Met-oxazolone value_kind=self-aminoacylation assay_result=7.32
residue_codes="AUUGCCCUGGUCAUCGAGAGA [Fam2.1 aminoacylation ribozyme variant]" target_entity=biotinyl-Met-oxazolone value_kind=self-aminoacylation assay_result=1.39
residue_codes="AUUAACCUGCUCAUCGAGUGA [Fam2.1 aminoacylation ribozyme variant]" target_entity=biotinyl-Met-oxazolone value_kind=self-aminoacylation assay_result=2.38
residue_codes="AAGUUUGCUAAUAGUCCCAAU [Fam3.1 aminoacylation ribozyme variant]" target_entity=biotinyl-Met-oxazolone value_kind=self-aminoacylation assay_result=0.987
residue_codes="CUUCGUCAAACAAUCGGUCUG [Fam1A.1 aminoacylation ribozyme variant]" target_entity=biotinyl-Met-oxazolone value_kind=self-aminoacylation assay_result=1.65
residue_codes="AUUCACGUAGGUCAUCGGGGG [Fam2.2 aminoacylation ribozyme variant]" target_entity=biotinyl-Met-oxazolone value_kind=self-aminoacylation assay_result=2.66
residue_codes="AAGUUUGCCUAUAGUCGCAAG [Fam3.1 aminoacylation ribozyme variant]" target_entity=biotinyl-Met-oxazolone value_kind=self-aminoacylation assay_result=0.706
residue_codes="AUUAUACUGGUCAUCGAGUGA [Fam2.1 aminoacylation ribozyme variant]" target_entity=biotinyl-Met-oxazolone value_kind=self-aminoacylation assay_result=4.91
residue_codes="AAGUUUGCGAAUAGUCGCAUG [Fam3.1 aminoacylation ribozyme variant]" target_entity=biotinyl-Met-oxazolone value_kind=self-aminoacylation assay_result=1.04
residue_codes="AAGUCUGCUUAUAGUCGCAAG [Fam3.1 aminoacylation ribozyme variant]" target_entity=biotinyl-Met-oxazolone value_kind=self-aminoacylation assay_result=1.18
residue_codes="CCACAGUUCAAGCAAUCGGUG [Fam1B.1 aminoacylation ribozyme variant]" target_entity=biotinyl-Met-oxazolone value_kind=self-aminoacylation assay_result=4.04
residue_codes="CCACCCUUCAACCAAUCGGUC [Fam1B.1 aminoacylation ribozyme variant]" target_entity=biotinyl-Met-oxazolone value_kind=self-aminoacylation assay_result=1.35
